Target under test: Enkephalinase (Rattus norvegicus)
Sequence (P07861 1-750): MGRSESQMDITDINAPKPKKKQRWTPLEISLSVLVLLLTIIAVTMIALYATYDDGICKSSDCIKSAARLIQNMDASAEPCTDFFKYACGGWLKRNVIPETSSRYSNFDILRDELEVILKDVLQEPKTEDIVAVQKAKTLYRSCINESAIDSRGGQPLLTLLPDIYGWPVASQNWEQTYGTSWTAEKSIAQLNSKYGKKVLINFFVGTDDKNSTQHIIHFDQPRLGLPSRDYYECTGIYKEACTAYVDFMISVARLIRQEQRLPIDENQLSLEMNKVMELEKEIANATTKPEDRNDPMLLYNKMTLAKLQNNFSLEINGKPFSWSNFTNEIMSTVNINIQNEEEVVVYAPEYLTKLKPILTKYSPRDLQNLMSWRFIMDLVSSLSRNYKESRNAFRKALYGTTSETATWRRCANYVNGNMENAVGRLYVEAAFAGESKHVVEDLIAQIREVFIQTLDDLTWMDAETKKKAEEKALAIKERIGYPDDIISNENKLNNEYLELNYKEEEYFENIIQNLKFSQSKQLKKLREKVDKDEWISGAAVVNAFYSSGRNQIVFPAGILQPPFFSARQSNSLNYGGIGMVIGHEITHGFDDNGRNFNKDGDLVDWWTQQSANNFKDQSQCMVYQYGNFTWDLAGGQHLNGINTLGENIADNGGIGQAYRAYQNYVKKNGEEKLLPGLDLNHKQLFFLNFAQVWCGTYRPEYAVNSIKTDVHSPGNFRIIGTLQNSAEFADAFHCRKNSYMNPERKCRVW
Assay metric: Ki (nM)

O=C(O)CC(Cc1ccccc1)C(=O)N[C@H]1Cc2ccccc2[C@H]2CCC[C@@H](C(=O)O)N2C1=O (stereo partly shown) [101,287] : 5
